- Test system: XF498
- procedure_text: NCI tumour cell line growth inhibition, 48 h
Activity calls are given as the source filed them. Rule as the data show it: active = GI50 up to about 1.1 µM and inactive = higher.
Listing of entries alongside the reported GI50.

{"compound": "COc1ccc2cc1Oc1ccc(cc1)C[C@H]1c3cc(c(OC)cc3CCN1C)Oc1c(O)c(OC)cc3c1[C@H](C2)N(C)CC3 [FANGCHINOLINE]", "experimental_result": "27.4 µM (inactive)"}

State its GI50 on XF498: `COc1cc(Nc2cnc3cc(C(F)(F)F)ccc3n2)cc(OC)c1OC`
> 100 µM (inactive)

Query `Brc1ccccc2cc(-c3ccccc3)nc1-2` next
1.98 µM (inactive)

Another: `COc1ccc2c(c1OC)C1=C(C2=O)c2cc3c(cc2CCN1)OCO3`
40.3 µM (inactive)

Can you handle `O=C(c1ccccc1)N1CCc2c([nH]c3ccccc23)C1` next?
20.8 µM (inactive)

Likewise for `Cc1nn2c(=O)n(-c3cccc(-n4nnc5c(-c6ccccc6)c(C)nn5c4=O)c3C)nnc2c1-c1ccccc1` ?
20.9 µM (inactive)

And for O=C1Cc2c([nH]c3ccccc23)-c2ccccc2N1 [PAULLONE] ?
31.6 µM (inactive)

Entry to check: Cc1ccccc1NC(=O)C(=O)C(C#N)c1ccc(Cl)cc1 (centres undefined)
33.8 µM (inactive)

The reported measurements were obtained from ChEMBL document CHEMBL1201862.
